Target: 5-hydroxytryptamine receptor 2A (Mus musculus)
Assay: mouse Htr2a agonists via beta-arrestin recruitment, primary screen, cell-based, luminescence (AID 624169);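 further: 0% = plate median of compound wells and 100% = 30 µM serotonin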
Settings: CHO-K1 mHTR2A beta-arrestin complementation, at 7.6 µM, active compounds read high, percent of 30 µM serotonin response
The whole screen tested about 360,000 compounds, of which about 2,400 (0.67%) were called active. Only a selection was taken, and actives are over-represented in it overall.
Listing of entries alongside the reported activation.
Lab book: enter the figure in %, no units written.

[
  {
    "compound": "Cc1ccc(CC2(C)C(=O)Nc3ccc(OC(F)(F)F)cc32)cc1 (stereo unspecified)",
    "measuredValue": -3.94
  }
]

Please report activation with 5-hydroxytryptamine receptor 2A (Mus musculus) for item O=C1CCC(C(=O)Nc2ccc(OC(F)F)cc2)N1 (stereo unspecified) .
2.5

For 5-hydroxytryptamine receptor 2A (Mus musculus), give activation of the listed compound: CN1OC[C@@H]2CN[C@H](c3ccc(-c4ccccc4)cc3)C[C@@H]21
-5.82

Give activation only, for CCCCN(C(=O)c1ccc(C)o1)c1c(N)n(CCCC)c(=O)[nH]c1=O , using 5-hydroxytryptamine receptor 2A (Mus musculus) data.
-12.3
